Record form. Attribute: MFI. Fill in for each entry.
Measured target: T1, human TMEM106B (human, UniProt Q9NUM4 2-274)
T1 construct: Full-length, on transiently transfected HEK293 cells, or natively expressed on HeLa, U251 and A549 cells; also called huTMEM106B; huTMEM
Protocol notes: FACS HEK+huTMEM, 0.01 ug/ml
Numbers only.

Please review the entries below; each comes with its answer.
{"Binder": "anti-TMEM106B antibody TM-4 (antibody, V domains shown) VH: EVQVQQSGPVLVKPGASVKMSCKASGYTFTDYYMNWVKQSHGKNLEWIGVINPYNGGTSYHQKFKGKATLTVDKSSSTAYMELNSLTSEDSAVYYCARAATVVAGFDYWGQGTTLTVSS VL: QAVVTQESALTTSPGETVTLTCRSSTGAVTTSNYANWVQEKPDHLFTGLIGGTNNRAPGVPARFSGSLIGDKAALTITGAQTEDEAIYFCVLWYSNHLVFGGGTKLTVL", "Observable": "MFI", "Measured result": 282}
{"Binder": "anti-TMEM106B antibody TM-23 (antibody, V domains shown) VH: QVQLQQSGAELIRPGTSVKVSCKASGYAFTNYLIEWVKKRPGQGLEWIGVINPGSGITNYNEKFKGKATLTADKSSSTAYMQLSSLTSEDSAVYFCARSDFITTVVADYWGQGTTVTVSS VL: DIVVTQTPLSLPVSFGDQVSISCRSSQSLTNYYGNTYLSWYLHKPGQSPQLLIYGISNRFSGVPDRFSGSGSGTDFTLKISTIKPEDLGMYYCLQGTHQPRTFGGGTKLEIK", "Observable": "MFI", "Measured result": 1100}
{"Binder": "anti-TMEM106B antibody TM-26 (antibody, V domains shown) VH: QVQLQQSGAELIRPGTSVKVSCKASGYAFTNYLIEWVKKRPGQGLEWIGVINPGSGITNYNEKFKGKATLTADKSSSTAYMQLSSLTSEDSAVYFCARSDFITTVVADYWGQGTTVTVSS VL: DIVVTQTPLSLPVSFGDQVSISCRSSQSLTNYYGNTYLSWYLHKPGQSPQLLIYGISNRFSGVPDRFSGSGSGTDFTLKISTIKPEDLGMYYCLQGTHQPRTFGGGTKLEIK", "Observable": "MFI", "Measured result": 1000}
{"Binder": "anti-TMEM106B antibody TM-3 (antibody, V domains shown) VH: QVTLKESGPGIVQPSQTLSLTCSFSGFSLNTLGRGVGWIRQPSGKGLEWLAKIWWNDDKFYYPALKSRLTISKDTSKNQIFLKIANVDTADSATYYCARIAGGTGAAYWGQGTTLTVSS VL: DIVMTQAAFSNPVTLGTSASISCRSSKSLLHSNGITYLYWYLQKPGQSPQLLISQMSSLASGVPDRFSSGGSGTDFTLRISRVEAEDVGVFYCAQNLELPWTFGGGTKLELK", "Observable": "MFI", "Measured result": 7700}
{"Binder": "anti-TMEM106B antibody TM-31 (antibody, V domains shown, mouse IgG from hybridoma) VH: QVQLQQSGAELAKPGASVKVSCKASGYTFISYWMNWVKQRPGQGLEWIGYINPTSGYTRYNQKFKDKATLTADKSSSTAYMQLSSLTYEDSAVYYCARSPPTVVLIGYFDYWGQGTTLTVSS VL: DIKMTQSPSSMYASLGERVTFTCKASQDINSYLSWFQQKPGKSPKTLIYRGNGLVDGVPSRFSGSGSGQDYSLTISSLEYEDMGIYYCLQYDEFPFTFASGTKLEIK", "Observable": "MFI", "Measured result": 596}

Working through the 5 binders below one at a time, give MFI for each.
1. anti-TMEM106B antibody TM-14 (antibody, V domains shown, mouse IgG from hybridoma) VH: QVQLQQSGPELVRPGTSVKVSCKASGYAFTNYLIEWVKQRPGQGLEWIGVINPGGGNTDYSEKFKDKATLTADKSSNTAYIQLSSLTSEDSAVYFCARSPYSSYVGYAVDYWGQGTSVTVSS VL: DIQMTQSPSSLSASLGERVSLTCRASQDIGSNLNWLQQEPDGTIKRLIYATSSLDSGVPKRFSGSRSGSDYSLTISSLESEDFVVYYCLQYASSPRTFGGGTRLEIK
2. anti-TMEM106B antibody TM-48 (antibody, V domains shown) VH: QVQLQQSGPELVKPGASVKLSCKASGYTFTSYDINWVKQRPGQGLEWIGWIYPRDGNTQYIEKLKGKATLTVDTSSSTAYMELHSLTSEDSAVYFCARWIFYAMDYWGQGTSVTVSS VL: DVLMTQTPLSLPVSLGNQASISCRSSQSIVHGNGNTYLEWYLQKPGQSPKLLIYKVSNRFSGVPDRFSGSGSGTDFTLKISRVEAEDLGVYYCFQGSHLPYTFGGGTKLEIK
3. anti-TMEM106B antibody TM-32 (antibody, V domains shown) VH: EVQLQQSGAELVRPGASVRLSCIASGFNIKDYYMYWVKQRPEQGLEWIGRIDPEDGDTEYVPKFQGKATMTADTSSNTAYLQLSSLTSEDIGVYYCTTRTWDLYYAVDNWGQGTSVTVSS VL: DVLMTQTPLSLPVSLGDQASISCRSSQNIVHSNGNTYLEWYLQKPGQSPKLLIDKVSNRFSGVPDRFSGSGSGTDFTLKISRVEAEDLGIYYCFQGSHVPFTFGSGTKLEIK
4. anti-TMEM106B antibody TM-24 (antibody, V domains shown, mouse IgG from hybridoma) VH: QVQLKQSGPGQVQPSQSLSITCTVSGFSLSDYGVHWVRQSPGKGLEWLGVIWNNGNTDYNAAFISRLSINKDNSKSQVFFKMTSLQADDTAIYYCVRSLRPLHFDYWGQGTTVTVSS VL: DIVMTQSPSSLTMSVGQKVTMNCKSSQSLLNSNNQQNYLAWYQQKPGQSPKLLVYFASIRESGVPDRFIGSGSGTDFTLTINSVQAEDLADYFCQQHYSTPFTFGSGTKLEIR
5. anti-TMEM106B antibody TM-19 (antibody, V domains shown) VH: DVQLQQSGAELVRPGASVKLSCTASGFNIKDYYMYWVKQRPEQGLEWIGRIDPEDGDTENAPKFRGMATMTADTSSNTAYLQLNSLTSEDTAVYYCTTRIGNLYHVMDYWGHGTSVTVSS VL: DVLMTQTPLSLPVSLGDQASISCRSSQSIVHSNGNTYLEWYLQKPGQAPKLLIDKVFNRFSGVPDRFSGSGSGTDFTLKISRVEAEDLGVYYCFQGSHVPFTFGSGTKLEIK

1: 314; 2: 4050; 3: 4100; 4: 3620; 5: 3340

Entry source: patent US20230303681A1
